# Target Under Test: acetylcholine receptor on AchR-overexpressed TE671 cells
# Experimental Protocol: cell-based or functional assay
Measured Metric: inhibitory ability on nicotinic acetylcholine receptors, in multiples compared with Spep-2 (times)
Numbers only, in times.

Use these answered entries as a reference point.
SNVKRKRGRCKPYR [L3-37] : 32
PNGKVRKRIRRRYF [L3-28] : 16
RARKKRKSLLRRQV [L3-27] : 8

Please turn your attention to the following entry.
// fetch inhibitory ability on nicotinic acetylcholine receptors, in multiples compared with Spep-2 given entry RYAKHRKRQTR [L2-110]
8
